Assay: in vitro
Details: human
experimental.endpoint: CC50 (µM)

compound	experimental.endpoint	units.text	data.value
CNCCC(Oc1ccc(C(F)(F)F)cc1)c1ccccc1 (centres unmarked) [Fluoxetine]	CC50	µM	28.7
CN1[C@@H]2CC[C@H]1C[C@@H](OC(c1ccccc1)c1ccccc1)C2 [Benztropine]	CC50	µM	54.5
CN[C@H]1CC[C@@H](c2ccc(Cl)c(Cl)c2)c2ccccc21 [Sertraline]	CC50	µM	15
CN(C)CCCN1c2ccccc2CCc2ccccc21 [Imipramine]	CC50	µM	76.3
Fc1ccc([C@@H]2CCNC[C@H]2COc2ccc3c(c2)OCO3)cc1 [Paroxetine]	CC50	µM	23.6
